- Tested on: F culmorum
- assayDetails: Specific antifungal activity of Rs-AFP2 isoforms in SMF− and SMF+ media
- Assay type: cell-based
- Design: unit not given here
- conditionDetails: 72 hours growth; high salt medium (1 mM CaCl2, 50 mM KCl); triplicate
This listing pairs substances with measured IC50 SMF+.
Lab note: write the figure by itself, no unit.

[[record]]
substance = "yRs-AFP2/G16M (QKLCQRPSGTWSGVCMNNNACKNQCIRLEKARHGSCNYVFPAHKCICYFPC; listed as Raphanus sativus)"
reportedproperty = "IC50 SMF+"
assayvalue = 5.0


Shifting focus to the substance that follows.
## Input Name the recorded IC50 SMF+ for yRs-AFP2/P7R: yeast-expressed Rs-AFP2 isoform, P7 replaced by arginine (QKLCQRRSGTWSGVCGNNNACKNQCIRLEKARHGSCNYVFPAHKCICYFPC; listed as Raphanus sativus) .
## Output 8.8
